biological target: ER (Homo sapiens (Human), UniProt P03372); assay: Western blot analysis (Compounds B1-B278); format: cell-based; settings: ER degradation by traditional Western blot; DC50 classes
Sequence (P03372 whole entry): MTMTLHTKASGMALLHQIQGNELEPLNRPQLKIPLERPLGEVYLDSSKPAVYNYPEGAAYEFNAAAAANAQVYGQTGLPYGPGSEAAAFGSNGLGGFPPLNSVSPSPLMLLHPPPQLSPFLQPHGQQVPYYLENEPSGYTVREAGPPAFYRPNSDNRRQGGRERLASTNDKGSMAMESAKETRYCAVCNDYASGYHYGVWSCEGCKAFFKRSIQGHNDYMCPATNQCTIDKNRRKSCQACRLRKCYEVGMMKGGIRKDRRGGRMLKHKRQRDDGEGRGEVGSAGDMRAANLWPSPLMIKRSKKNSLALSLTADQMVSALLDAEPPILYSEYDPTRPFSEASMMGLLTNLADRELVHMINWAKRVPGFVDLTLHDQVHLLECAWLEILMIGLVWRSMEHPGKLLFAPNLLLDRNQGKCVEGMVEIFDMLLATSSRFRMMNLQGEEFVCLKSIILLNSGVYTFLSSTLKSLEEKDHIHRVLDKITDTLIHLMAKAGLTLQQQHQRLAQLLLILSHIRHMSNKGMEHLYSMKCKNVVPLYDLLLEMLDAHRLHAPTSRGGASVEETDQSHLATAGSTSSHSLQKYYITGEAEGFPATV

[
  {
    "molecule": "C[C@@H]1Cc2c([nH]c3ccccc23)[C@H](c2c(F)cc(CN3CCC4(CCC(CN5Cc6cc7c(cc6C5)C(=O)N(C5CCC(=O)NC5=O)C7=O)CC4)CC3)cc2F)N1CC(F)F (some centres unmarked)",
    "Traditional Western Degradation Potency": "C (“C”: >100 nM)"
  },
  {
    "molecule": "C[C@@H]1Cc2c([nH]c3ccccc23)[C@@H](c2c(F)cc(C3CCC(C(=O)N4CCC(CN5Cc6cc7c(cc6C5)C(=O)N(C5CCC(=O)NC5=O)C7=O)CC4)CC3)cc2F)N1CC(F)F (some centres unmarked)",
    "Traditional Western Degradation Potency": "C (“C”: >100 nM)"
  },
  {
    "molecule": "C[C@@H]1Cc2c([nH]c3ccccc23)[C@@H](c2ncc(C3=CCC(C(=O)N4CCC(N5Cc6cc7c(cc6C5)C(=O)N(C5CCC(=O)NC5=O)C7=O)CC4)CC3)cc2F)N1CC(F)F (some centres unmarked)",
    "Traditional Western Degradation Potency": "C (“C”: >100 nM)"
  }
]

----------
Form field: IC50 (one value per entry).
assay: Cell growth assay (WST-8) (Compounds B1-B278); assay type: cell-based; conditions: 96 h; T47D cell line; WST-8, 4 days; read-out: Cell Growth Inhibition in T47D cell line IC50

[
  {
    "molecule": "C[C@@H]1Cc2c([nH]c3ccccc23)[C@@H](c2cnc(N3CCC4(CC3)CC(N3CCN5c6ccc7c(c6OC[C@H]5C3)CN(C3CCC(=O)NC3=O)C7=O)CO4)nc2)N1CC(C)(C)F (stereo partly shown) [Compound B165]",
    "result": "0.001 to 0.01 µM"
  },
  {
    "molecule": "C[C@@H]1Cc2c([nH]c3ccccc23)[C@@H](c2cnc(N3CCC4(CC3)CC(CN3CCN5c6ccc7c(c6OC[C@H]5C3)CN(C3CCC(=O)NC3=O)C7=O)CO4)nc2)N1CC(F)(F)CO (stereo partly shown) [Compound B172]",
    "result": "< 0.001 µM"
  },
  {
    "molecule": "C[C@@H]1Cc2c([nH]c3ccccc23)[C@@H](c2cnc(N3CC4(CCC(CN5CCN6c7ccc8c(c7OC[C@H]6C5)CN(C5CCC(=O)NC5=O)C8=O)CC4)C3)nc2)N1CC(C)(C)F (stereo partly shown) [Compound B182]",
    "result": "0.001 to 0.01 µM"
  },
  {
    "molecule": "C[C@@H]1Cc2c([nH]c3ccccc23)[C@@H](c2cnc(N3CC4(CCC(CN5CCN6c7ccc8c(c7N(C)C[C@@H]6C5)CN(C5CCC(=O)NC5=O)C8=O)CC4)C3)nc2)N1CC(F)F (stereo partly shown) [Compound B125]",
    "result": "> 0.01 µM"
  },
  {
    "molecule": "C[C@@H]1Cc2c([nH]c3ccccc23)[C@@H](c2c(F)cc(N3CCC4(CC3)OCC(CN3CCN5c6cc7c(cc6OC[C@@H]5C3)C(=O)N(C3CCC(=O)NC3=O)C7)CO4)cc2F)N1CC(F)(F)CO (stereo partly shown) [Compound B270]",
    "result": "< 0.001 µM"
  }
]

The value of IC50 measured for the molecule COc1cc(N2CCC3(CCN(C(=O)CN4Cc5cc6c(cc5C4)C(=O)N(C4CCC(=O)NC4=O)C6=O)CC3)CC2)ccc1[C@@H]1c2[nH]c3ccccc3c2C[C@@H](C)N1CC(C)(C)F (stereo partly shown) [Compound B170] turned out to be 0.001 to 0.01 µM

The value of IC50 measured for the molecule C[C@@H]1Cc2c([nH]c3ccccc23)[C@@H](c2cnc(N3CCC4(CC3)CC(CN3CCN5c6ccc7c(c6N(C)C[C@@H]5C3)CN(C3CCC(=O)NC3=O)C7=O)C4)nc2)N1CC(F)F (stereo partly shown) [Compound B126] turned out to be > 0.01 µM

The value of IC50 measured for the molecule C[C@@H]1Cc2c([nH]c3ccccc23)[C@@H](c2cnc(N3CCC(OCCN4CCN5c6cc7c(cc6OC[C@@H]5C4)C(=O)N([C@H]4CCC(=O)NC4=O)C7)CC3)nc2)N1CC(F)F [Compound 1B24] turned out to be 0.001 to 0.01 µM

The value of IC50 measured for the molecule C[C@@H]1Cc2c([nH]c3ccccc23)[C@@H](c2cnc(N3CCC4(CCC(CN5CCN6c7cc8c(cc7OC[C@@H]6C5)C(=O)N(C5CCC(=O)NC5=O)C8)CC4)CC3)nc2)N1CC(F)F (stereo partly shown) [Compound B136] turned out to be > 0.01 µM

The value of IC50 measured for the molecule C[C@@H]1Cc2c([nH]c3ccccc23)[C@@H](c2cnc(N3CCC(CCN4CCN5c6ccc7c(c6OC[C@H]5C4)CN(C4CCC(=O)NC4=O)C7=O)CC3)nc2)N1CC(F)F (stereo partly shown) [Compound B160] turned out to be 0.001 to 0.01 µM

----------
Form field: Dmax (one value per entry).
target: ER in MCF-7 cells (Homo sapiens (Human), UniProt P03372); test: In-cell western (ICW) ER degradation assay in MCF-7 cells (Compounds A1-A70); assay type: cell-based; details: MCF7, maximal ER degradation, MCF-7 cells, 16 hrs treatment; read-out: MCF7 ICW Dmax (%)
Sequence (P03372 whole entry): as above
Structures can show the parent of a compound that is named as a salt.

Study these solved cases before continuing.
[
  {
    "molecule": "COc1cc(N2CCC(CN3CCC4(CC3)COc3cc5c(cc34)CN(C3CCC(=O)NC3=O)C5=O)CC2)ccc1[C@@H]1c2[nH]c3ccccc3c2C[C@@H](C)N1CC(F)F (stereo partly shown) [Compound A33]",
    "result": "< 25%"
  },
  {
    "molecule": "COc1cc(N2CCC(CN3CCN(c4ccc(C(=O)N[C@H]5CCC(=O)NC5=O)nc4)CC3)CC2)ccc1[C@@H]1c2[nH]c3ccccc3c2C[C@@H](C)N1CC(F)F [Compound A43, formate]",
    "result": "50 to 75%"
  },
  {
    "molecule": "COc1cc(N2CCC(CN3CCN4c5ccc6c(c5OC[C@H]4C3)CN([C@H]3CCC(=O)NC3=O)C6=O)CC2)ccc1[C@H]1c2[nH]c3ccccc3c2C[C@@H](C)N1CC(F)F [Compound A39]",
    "result": "50 to 75%"
  },
  {
    "molecule": "COc1cc(N2CCC(CN3CCN(c4ccc(C(=O)NC5CCC(=O)NC5=O)nc4OC)CC3)CC2)ccc1[C@@H]1c2[nH]c3ccccc3c2C[C@@H](C)N1CC(F)F (stereo partly shown) [Compound A52]",
    "result": "25 to 50%"
  },
  {
    "molecule": "COc1cc(N2CCC(CN3CCN4c5cc6c(cc5OC[C@@H]4C3)C(=O)N([C@@H]3CCC(=O)NC3=O)C6)CC2)ccc1[C@H]1c2[nH]c3ccccc3c2C[C@H](C)N1CC(F)F [Compound A44]",
    "result": "50 to 75%"
  }
]

The value of Dmax measured for the molecule C[C@H]1Cc2c([nH]c3ccccc23)[C@H](c2cnc(N3CCC4(CC3)C[C@@H](CN3CCC(c5ccc(N[C@@H]6CCC(=O)NC6=O)cc5)CC3)CO4)nc2)N1CC(F)F [Compound A66] turned out to be 50 to 75%

The value of Dmax measured for the molecule C[C@@H]1Cc2c([nH]c3ccccc23)[C@@H](c2ccc(N3CCC4(CC3)CC(CN3CCN5c6ccc7c(c6OC[C@@H]5C3)CN([C@H]3CCC(=O)NC3=O)C7=O)C4)nc2)N1CC(F)F [Compound A24] turned out to be 25 to 50%

The value of Dmax measured for the molecule C[C@@H]1Cc2c([nH]c3ccccc23)[C@@H](c2cnc(N3CCC4(CC3)CC(CN3CCC(c5ccc6c(c5)n(C)c(=O)n6C5CCC(=O)NC5=O)CC3)C4)nc2)N1CC(F)F (stereo partly shown) [Compound A32] turned out to be 25 to 50%

The value of Dmax measured for the molecule C[C@H]1Cc2c([nH]c3ccccc23)[C@H](c2ccc(N3CCC(CN4CCN5c6cc7c(cc6OC[C@H]5C4)C(=O)N([C@@H]4CCC(=O)NC4=O)C7)CC3)cn2)N1CC(F)(F)F [Compound A64] turned out to be < 25%

The value of Dmax measured for the molecule C[C@@H]1Cc2c([nH]c3ccccc23)[C@@H](c2cnc(N3CCC(CN4CCN5c6ccc7c(c6OC[C@@H]5C4)CN(C4CCC(=O)NC4=O)C7=O)CC3)nc2)N1CC(F)F (stereo partly shown) [Compound A5] turned out to be 50 to 75%

Values were extracted from patent US20260007681A1.
